I'd be grateful if you could share measured composite z-score for these entries.
assayMethodText: small-molecule binders of probe aLefty1, primary screen, biochemical, small-molecule microarray, 635/667 nm fluorescence (AID 1153);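 further: score merges spot fluorescence with signal-to-noise ratio from the scanned slide images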
assayContext: higher = more signal
Numbers only.

[[record]]
molecule = "CO[C@H]1COC(=O)CC=C[C@@H](C)COC(=O)[C@H]2CCCN2C(=O)CC=C[C@H]1C"
property = "composite z-score"
testresult = -0.217


Kindly give each listed record's composite z-score.
1. CC(CCN1CCCc2nc(C)c(C)cc21)=NOC[C@@H](O)COCc1ccco1
2. COc1ccc(O[C@H]2C=C[C@@H](c3ccccc3)O[C@@H]2CON=C(C)CCN2CCCc3nc(C)c(C)cc32)cc1
3. O=C1[C@H]2[C@H]3[C@H](O)[C@H](O)CC(=NO[C@@H]4O[C@H](CO)[C@@H](O)[C@H](O)[C@H]4O)[C@@H]3CC[C@H]2C(=O)N1c1cccc(Oc2ccccc2)c1
4. COCCNC(=O)OCC1CCCC2(CC(OC(=O)NCc3cccc4ccccc34)CC(CCC(=O)N[C@@H](C)C(=O)OC)O2)O1 (stereo partly specified)
5. CCc1cc2c(nc1CC)CCN(CCC(C)=NO[C@@H]1O[C@H](COC(C)=O)[C@@H](OC(C)=O)[C@H](OC(C)=O)[C@H]1OC(C)=O)C2

A)
1: 1.95; 2: 0.0341; 3: -0.0967; 4: -0.198; 5: -0.0929

Need composite z-score for each of these molecules.
1. COC(=O)[C@H](C)NC(=O)CCC1CC(OC(=O)NCc2cccc3ccccc23)CC2(CCCC(COC(=O)NCc3ccccc3)O2)O1 (stereo partly specified)
2. COC(=O)[C@H](C)NC(=O)CCC1CC(OC(=O)NCc2cccc3ccccc23)CC2(CCCC(COC(=O)NCCCN3CCCC3=O)O2)O1 (stereo partly specified)
3. O=C1CCCC=C1C(O)C1CCCCC1 (stereo unspecified)
4. O=C1C[C@@H](O)[C@@H](O)[C@@H]2[C@@H]3C(=O)N(C4CCCCC4)C(=O)[C@@H]3CC[C@@H]12
5. CC(CCC(=O)OC[C@H]1O[C@H](C#Cc2ccccc2)C=C[C@@H]1Oc1ccc(C)cc1)=NO[C@@H](C)c1cc(-c2c(C)cc(C)cc2C)no1
6. CCOC(=O)CCN1C(=O)[C@H]2[C@H]3[C@H](O)[C@H](O)CC(=O)[C@@H]3CC[C@H]2C1=O
7. CC(C)CN1CCc2nc(-c3ccccc3)c3c(c2C1)CO[C@@H](C)C3
8. COC(=O)[C@H](C)NC(=O)CCC1CC(OC(=O)NCCc2ccc(F)cc2)CC2(CCCC(COC(=O)NCC3CCCCC3)O2)O1 (stereo partly specified)

A)
0.378
0.582
-0.312
-0.395
-0.0929
-0.407
0.123
-0.0464

Give me composite z-score for each of these molecules, listed below.
1. CCOC(=O)[C@H](CC(C)C)NC(=O)CCC1CC(OC(=O)NCCc2ccc(F)cc2)CC2(CCCC(COC(=O)NCCCN3CCCC3=O)O2)O1 (stereo partly specified)
2. CC(C)CON=C1C[C@@H](O)[C@@H](O)[C@@H]2[C@@H]3C(=O)N(c4ccc(F)cc4F)C(=O)[C@@H]3CC[C@@H]12

A)
1: -0.28; 2: -0.0984

For every item below, please supply its composite z-score.
1. CCN1C(=O)[C@H]2[C@H]3[C@H](O)[C@H](O)CC(=NO[C@@H]4O[C@H](CO)[C@@H](O)[C@H](O)[C@H]4O)[C@H]3CC[C@H]2C1=O
2. CC(C)CON=C1C[C@@H](O)[C@@H](O)[C@@H]2[C@@H]3C(=O)N(Cc4ccc5c(c4)OCO5)C(=O)[C@@H]3CC[C@@H]12
3. COC(=O)CC=C[C@@H](C)[C@@H](C=NOC[C@@H](O)COCc1ccco1)OC

A)
-0.234
-0.28
-0.202
